System: Hepatotoxicity
Experiment: FDA HLAED, serum glutamic pyruvic transaminase (SGPT) increase
Conditions: human
Property name: SGPT Increase - Number of Reports

Example entries and their recorded answers appear below.
molecule=CCCCC[C@H](O)/C=C/[C@@H]1[C@H]2C/C(=C/CCCC(=O)O)O[C@H]2C[C@H]1O result="< 4"
molecule=Fc1ccc([C@@H]2CCNC[C@H]2COc2ccc3c(c2)OCO3)cc1 result=">= 4"
molecule=C#CCN(C)[C@H](C)Cc1ccccc1 result=">= 4"
molecule="CC(C)(C)NCC(O)COc1cccc2c1CC(O)C(O)C2 (centres undefined)" result=">= 4"

Problem: Which measured SGPT Increase - Number of Reports value corresponds to OCc1cc(C(O)CNCCCCCCOCCCCc2ccccc2)ccc1O (centres undefined) ?
Solution: < 4

Problem: Which measured SGPT Increase - Number of Reports value corresponds to C=CC[N+]1([C@H]2C[C@H]3[C@@H]4CC[C@H]5C[C@H](O)[C@@H](N6CCOCC6)C[C@]5(C)[C@H]4CC[C@]3(C)[C@H]2OC(C)=O)CCCC1.[Br-] [ROCURONIUM BROMIDE] ?
Solution: < 4

Problem: Which measured SGPT Increase - Number of Reports value corresponds to CC(=O)NO [ACETOHYDROXAMIC ACID] ?
Solution: < 4

Problem: Which measured SGPT Increase - Number of Reports value corresponds to O=C1NC(c2ccccc2)(c2ccccc2)C(=O)N1COP(=O)(O)O ?
Solution: < 4

Problem: Which measured SGPT Increase - Number of Reports value corresponds to NCCCNCCSP(=O)(O)O ?
Solution: < 4
